Assay: Toxicity liver stage against HepG2, at 10uM
Format: cell-based
Design: test concentration 10 uM, cell line HepG2-A16-CD81EGFP
Details: human, HepG2-A16-CD81EGFP cells; read-out: INHIBITION
This section presents molecules with their documented cytotoxicity at 10 µM values.
State the answer as a number, implicitly in %.

Here's what some known entries look like.
INSERT INTO measurements (molecule, endpoint_result) VALUES
  ('CS(=O)(=O)N1Cc2ccccc2CC2(CCN(Cc3ccccn3)C2)C1 (stereo unspecified)', 4.51),
  ('Nc1nc(NCCO)cc(N2CCc3c([nH]c4ccccc34)C2)n1', 11.9),
  ('O=C(O)CCn1ccc(=O)c2ccccc21', 0.148),
  ('CCC1CNCc2cc3c(C)ccc(C)c3nc2O1 (stereo unspecified)', -4.22),
  ('Cn1cc(S(=O)(=O)N2CCCC2CC(=O)c2cccs2)cn1 (stereo unspecified)', -8.08);

Prompt line: # query: cytotoxicity at 10 µM of entry Cc1nc(N2CCC(C(O)c3nccn3C)CC2)c2c(C)noc2n1 (stereo unspecified)
Response line: 7.54

Prompt line: Next: CC(C)c1noc(CN(Cc2cccnc2)C2CN3CCC2CC3)n1 (stereo unspecified)
Response line: 17.2

Prompt line: Would you mind doing CCN(C)c1ncnc2c1CCN(Cc1ccc(F)cc1)CC2 as well?
Response line: 3.1

Prompt line: Thanks! And O=C(c1ccnnc1)N1C[C@H]2CCC[C@@H](OCc3cccnc3)[C@@H]2C1 ?
Response line: 5.19

Prompt line: Moving on to COCCN(Cc1ccoc1)S(=O)(=O)c1ccc(F)c(C)c1
Response line: -7.15

Prompt line: Could you do the same for CC1CCCCN1S(=O)(=O)NCc1cccnc1OC1CCCC1 (stereo unspecified) , please?
Response line: -89.8
